System: HepG2.2.15 cells
Experiment: In vitro cytotoxicity (CCK-8)
Assay type: cell-based
Details: 6 days treatment
Protocol: 2.2. In Vitro Cytotoxicity A vial of HepG2.2.15 cells (Wuhan Institute of Virology) in good condition and at logarithmic growth phase was washed once with 5 mL of PBS. 2 mL of pancreatin was added. The cells were incubated in a cell incubator for digestion, and observed at times under a microscope. […] After 6 days of treatment, CCK-8 was added at 10 μL/well, and after 1-2 h, the absorbance at 450 nm was measured with a plate reader. The inhibition rate and CC50 were calculated.
reported endpoint: CC50

Could you share which CC50 value was measured for Cc1[nH]c(C(=O)C(=O)N[C@@H](C)C(F)(F)F)c(C)c1C(=O)Nc1ccc(F)c(C#N)c1 [Compound of formula I] ?
> 100 µM
